target: cdk4 (Homo sapiens); construct: host or cells: coupled in vitro transcription/translation in rabbit reticulocyte lysate; experiment: Peptide precipitation of in vitro translated 35S-labelled cdk4 from reticulocyte lysate; assay type: binding; details: biotinylated peptide on streptavidin agarose beads, densitometry
Sequence (P11802 whole entry): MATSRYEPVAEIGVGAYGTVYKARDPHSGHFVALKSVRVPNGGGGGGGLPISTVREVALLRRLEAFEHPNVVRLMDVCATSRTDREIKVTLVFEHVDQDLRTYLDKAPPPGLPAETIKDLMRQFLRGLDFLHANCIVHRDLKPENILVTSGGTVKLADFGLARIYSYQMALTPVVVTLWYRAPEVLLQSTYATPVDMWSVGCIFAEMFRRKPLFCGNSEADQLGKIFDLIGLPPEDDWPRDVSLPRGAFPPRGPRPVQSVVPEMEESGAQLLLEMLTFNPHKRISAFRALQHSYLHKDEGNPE
ASSAY_ENDPOINT: relative binding to in vitro expressed cdk4

SUBSTANCE	TARGET_ENTITY	MEASURED_VALUE
DAARAGFLDTLQTLLEFQAD (SGSGDAARAGFLDTLQTLLEFQAD) [p18 peptide, peptide derived from p18 corresponding to the 84-103 region of p16]	cdk4 (Homo sapiens)	binds
DAAREGFLDTLVVLHGSGAR (SGSGDAAREGFLDTLVVLHGSGAR) [mouse p16 peptide, peptide derived from mouse p16 corresponding to the 84-103 region of p16]	cdk4 (Homo sapiens)	binds
